Each entry below carries its reported IC50 against NIH-3T3 cell.
System: NIH-3T3 cell
Settings: 24 h
Positions of bridges follow the written chain, without caps; N, C: chain ends. Non-standard residues stand in square brackets, D forms with d. Residues, ends and D or L forms follow the SMILES beside them. S5 = C=CCCC[C@](C)(N)C(=O)O
The figure you give is taken to be in µg/mL; do not add the unit.

IC50 against NIH-3T3 cell measured on CC[C@H](C)[C@H](NC(=O)[C@]1(C)CCCC=CCCC[C@](C)(NC(=O)[C@H](CCCCN)NC(C)=O)C(=O)N[C@@H]([C@@H](C)CC)C(=O)N[C@@H](C(C)C)C(=O)N[C@@H](CCC(N)=O)C(=O)N1)C(=O)N[C@@H](CCCCN)C(=O)N[C@@H](CC(=O)O)C(=O)N[C@@H](Cc1ccccc1)C(=O)N[C@@H](CC(C)C)C(=O)N[C@@H](CCCNC(=N)N)C(N)=O [KR-12 (R2, R6)] (Ac-K[S5]IVQ[S5]IKDFLR-NH2; staple 2-6) = 78.3

// sample CC[C@H](C)[C@H](NC(=O)[C@H](CCCNC(=N)N)NC(=O)[C@H](CCCCN)NC(C)=O)C(=O)N[C@H](C(=O)N[C@@H](CCC(N)=O)C(=O)N[C@@H](CCCNC(=N)N)C(=O)N[C@@]1(C)CCCC=CCCC[C@@](C)(C(=O)N[C@@H](CCCNC(=N)N)C(N)=O)NC(=O)[C@H](Cc2ccccc2)NC(=O)[C@H](CC(=O)O)NC(=O)[C@H](CCCCN)NC1=O)C(C)C [KR-12 (I7, L11)] (Ac-KRIVQR[S5]KDF[S5]R-NH2; staple 7-11) , its IC50 against NIH-3T3 cell was 212.8

Lab book: IC50 against NIH-3T3 cell of CC[C@H](C)[C@@H]1NC(=O)[C@H](CCCNC(=N)N)NC(=O)[C@@](C)(NC(=O)[C@@H](NC(=O)[C@@H](NC(=O)[C@H](CCCNC(=N)N)NC(=O)[C@H](CCCCN)NC(C)=O)[C@@H](C)CC)C(C)C)CCCC=CCCC[C@@](C)(C(=O)N[C@@H](Cc2ccccc2)C(=O)N[C@@H](CC(C)C)C(=O)N[C@@H](CCCNC(=N)N)C(N)=O)NC(=O)[C@H](CCCCN)NC1=O [KR-12 (Q5, D9)] (Ac-KRIV[S5]RIK[S5]FLR-NH2; staple 5-9) noted as 168.5

Noted for CC(=O)N[C@@H](CCCCN)C(=O)N[C@@H](CCCNC(=N)N)C(=O)N[C@@]1(C)CCCC=CCCC[C@@](C)(C(=O)N[C@@H](CCCCN)C(=O)N[C@@H](CC(=O)O)C(=O)N[C@@H](Cc2ccccc2)C(=O)N[C@@H](CC(C)C)C(=O)N[C@@H](CCCNC(=N)N)C(N)=O)NC(=O)[C@H](CCCNC(=N)N)NC(=O)[C@H](CCC(N)=O)NC(=O)[C@H](C(C)C)NC1=O [KR-12 (I3, I7)] (Ac-KR[S5]VQR[S5]KDFLR-NH2; staple 3-7) : its IC50 against NIH-3T3 cell reads 145.7
